Item-by-item account of inhibition at 40 ppm
test system: Pythium ultimum; test: Mycelial growth test; assay type: cell-based; details: Globisporangium ultimum, 72 h, PU, 40 ppm, read-out: Percent Fungus Growth Inhibition
Report only the number, with the unit % understood.

> print(dat)
                          compound      test.system  reading.unit  result
1  COc1cc(Cl)cc(Oc2nsnc(Cl)c2=O)c1  Pythium ultimum             %     100

Alright, here's another compound for you.
Tell me the measured inhibition at 40 ppm of O=C1C2CC=CCC2C(=O)N1SC(Cl)(Cl)Cl (centres unmarked) [Captan, reference compound] , please.
0

====

test system: Alternaria solani; assay: Spore germination test; type: cell-based; conditions: AS, 40 ppm, 48 hours
PROPERTY_MEASURED: Spore Germination Rating

Reference set, count: 6
> print(dat)
                                   molecule         property.measured      result
1             O=c1c(Cl)nsnc1Oc1cccc(Cl)c1Cl  Spore Germination Rating    0 (0-10)
2            CCCCOc1ccc(Oc2nsnc(Cl)c2=O)cc1  Spore Germination Rating  4 (80-100)
3                   O=c1c(Cl)nsnc1Oc1ccccc1  Spore Germination Rating    0 (0-10)
4               CSc1ccc(Oc2nsnc(Cl)c2=O)cc1  Spore Germination Rating    0 (0-10)
5     O=c1c(Cl)nsnc1Oc1ccc([N+](=O)[O-])cc1  Spore Germination Rating    0 (0-10)
6  O=C(Nc1ccccc1)Nc1ccc(Oc2nsnc(Cl)c2=O)cc1  Spore Germination Rating  4 (80-100)

Tell me the measured Spore Germination Rating of O=c1c(Cl)nsnc1Oc1c(Cl)cc(Cl)cc1Cl , please.
0 (0-10)

Next up: Cc1ccc(Oc2nsnc(Cl)c2=O)c(C)c1
0 (0-10)

Next up: O=C(O)Cc1ccccc1Oc1nsnc(Cl)c1=O
2 (40-60)

Next up: O=c1c(Cl)nsnc1Oc1ccc(Cl)c(Cl)c1
0 (0-10)

====

system: Pythium ultimum; assay: Mycelial growth test; assay type: cell-based; conditions: Globisporangium ultimum, 72 h, PU, 40 ppm, read-out: Percent Fungus Growth Inhibition
Item-by-item account of inhibition at 40 ppm
Report only the number, with the unit % understood.

Reference set, count: 5
> print(dat)
               smiles.representation      test.system     property.measured  result
1      O=c1c(Cl)nsnc1Oc1c(Cl)cccc1Cl  Pythium ultimum  inhibition at 40 ppm     100
2        O=c1c(Cl)nsnc1Oc1cccc(Cl)c1  Pythium ultimum  inhibition at 40 ppm     100
3    Cc1cc(Cl)c(Oc2nsnc(Cl)c2=O)cc1C  Pythium ultimum  inhibition at 40 ppm      13
4  O=c1c(Cl)nsnc1Oc1cccc(C(F)(F)F)c1  Pythium ultimum  inhibition at 40 ppm     100
5         O=c1c(Cl)nsnc1Oc1ccc(O)cc1  Pythium ultimum  inhibition at 40 ppm     100

Alright, here's another compound for you.
Tell me the measured inhibition at 40 ppm of Cc1cc(C)cc(Oc2nsnc(Cl)c2=O)c1 , please.
100

====

tested on: Alternaria solani; assay: Mycelial growth test; assay type: cell-based; conditions: Alternaria solani, 72 h, AS, 5 ppm, read-out: Percent Fungus Growth Inhibition
Output y for inhibition at 5 ppm not less than 40%; output n otherwise.

> print(dat)
                         compound  group.label
1    Cc1cc(Cl)ccc1Oc1nsnc(Cl)c1=O            y
2  CCCCOc1ccc(Oc2nsnc(Cl)c2=O)cc1            n
3      Cc1cccc(Oc2nsnc(Cl)c2=O)c1            y
4   O=c1c(Cl)nsnc1Oc1cccc(Cl)c1Cl            y

Is inhibition at 5 ppm at least 40%? Consider COc1cc(Oc2nsnc(Cl)c2=O)cc(OC)c1C(C)=O
n

Next up: N#Cc1ccc(Oc2nsnc(Cl)c2=O)cc1
y

Next up: Cc1cc(C)cc(Oc2nsnc(Cl)c2=O)c1
y

Next up: N#Cc1c(Cl)c(Cl)c(Cl)c(C#N)c1Cl [Chlorothalonil, reference compound]
y

Next up: O=c1c(Cl)nsnc1Oc1ccc([N+](=O)[O-])cc1Cl
n

Next up: O=c1c(Cl)nsnc1Oc1ccc([N+](=O)[O-])cc1
n
